Source: patent US20180334496A1

This listing pairs binders with measured koff.
- TARGET_ENTITY: T1, serum purified human Complement Factor D (human, UniProt P00746 26-253)
- T1 construct: Serum purified protein flowed over the captured antibodies; also called CFD; human CFD
- PROTOCOL_NOTES: SPR Biacore, antibody on protein A chip, single cycle kinetics, 25 C
# value in s⁻¹; strip the unit string

Study these solved cases before continuing.
BINDER	UNITS_SYMBOL	MEASURED_NUMBER
34I54I59D84S / 54G101V (antibody, V domains shown, also called 34I54I59D845 / 54G101V) VH: EVQLVESGGGLVQPGGSLRLSCAASGYTFTDYYINWVRQAPGKGLEWIGDINPITGDTDYNADFKRRFTFSLDTSKSTAYLQMSSLRAEDTAVYYCTREGPSFAYWGQGTLVTVSS VL: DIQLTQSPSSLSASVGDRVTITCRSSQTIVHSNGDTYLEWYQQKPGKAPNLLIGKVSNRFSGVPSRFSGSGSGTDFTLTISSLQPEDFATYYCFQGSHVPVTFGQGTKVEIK	s⁻¹	5.18e-05
34I54I59D84S / 54R101V (antibody, human IgG1, V domains shown, Human IgG1 kappa; also called OG1965) VH: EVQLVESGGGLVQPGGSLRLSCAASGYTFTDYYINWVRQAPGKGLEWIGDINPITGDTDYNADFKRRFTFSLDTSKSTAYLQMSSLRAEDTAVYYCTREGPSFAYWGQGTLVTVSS VL: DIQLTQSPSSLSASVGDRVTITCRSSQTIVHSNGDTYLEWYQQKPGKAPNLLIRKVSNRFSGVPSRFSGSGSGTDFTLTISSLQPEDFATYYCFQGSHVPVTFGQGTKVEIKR	s⁻¹	9.02e-05

Form field: reported koff of KCD119 TAF / KCD119 TAF (antibody, V domains shown, Humanized KCD119; tested as full antibody captured on protein A; also called D19 TAF) VH: EVQLVESGGGLVQPGGSLRLSCAASGYTFTDYYMNWVRQAPGKGLEWIGDINPNTGDTSYNADFKRRFTFSLDTSKSTAYLQMNSLRAEDTAVYYCTREGPSFAYWGQGTLVTVSS VL: DIQLTQSPSSLSASVGDRVTITCRSSQTIVHSNGDTYLEWYQQKPGKAPNLLIYKVSNRFSGVPSRFSGSGSGTDFTLTISSLQPEDFATYYCFQGSHVPPTFGQGTKVEIK
0.00155
